Target: T1, human IL-23 (human, UniProt Q9NPF7 20-189; P29460 23-328)
T1 construct: Heterodimer of p19 and p40; also called hIL-23
T1 sequence 1: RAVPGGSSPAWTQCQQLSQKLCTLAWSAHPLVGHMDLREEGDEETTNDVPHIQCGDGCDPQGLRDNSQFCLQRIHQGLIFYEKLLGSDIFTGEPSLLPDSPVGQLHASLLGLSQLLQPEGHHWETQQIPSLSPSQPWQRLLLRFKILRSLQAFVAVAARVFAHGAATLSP
T1 sequence 2: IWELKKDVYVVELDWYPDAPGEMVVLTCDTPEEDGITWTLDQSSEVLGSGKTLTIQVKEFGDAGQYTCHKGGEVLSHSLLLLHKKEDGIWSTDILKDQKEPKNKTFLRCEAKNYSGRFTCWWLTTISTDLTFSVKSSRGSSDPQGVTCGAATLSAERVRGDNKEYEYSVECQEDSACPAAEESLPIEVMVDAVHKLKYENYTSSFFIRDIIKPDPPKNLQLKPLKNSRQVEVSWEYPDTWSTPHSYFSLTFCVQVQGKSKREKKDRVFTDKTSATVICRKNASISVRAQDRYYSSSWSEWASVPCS
Assay: inhibition ELISA: antibody pre-incubated with a constant concentration of human IL-23, IL-23 bound to plate-coated human IL23R Fc chimera detected with biotinylated anti-human IL12, OD450
quantity: IC50 (read off the curve)

[[record]]
binder = "A24AM4 (antibody, human IgG1, kappa, V domains shown) VH: QVQLVQSGAEVKKPGSSVKVSCKASGYTFTSYGITWVRQAPGQGLEWMGENYPRSGNIYYNEKFKGRVTITADKSTSTAYMELSSLRSEDTAVYYCARAEFISTVVAPYYYALDYWGQGTLVTVSS VL: DIVMTQSPDSLAVSLGERATINCKASKKVTIFGSTSALHWYQQKPGQPPKLIYNGAKPESGVPDRFSGSGSGTDFTLTISSLQAEDVAVYYCLQNKEVPYTFGGGTKVEIKR"
experimentalvalue = "~0.2 nM"

[[record]]
binder = "A5M21 (antibody, human IgG1, kappa, V domains shown) VH: QVQLVQSGAEVKKPGSSVKVSCKASGYTFTSYGITWVRQAPGQGLEWMGENYPRSGNTYYNEKFKGRVTITADKSTSTAYMELSSLRSEDTAVYYCARAEFISTVVAPYYYALDYWGQGTLVTVSS VL: DIVMTQSPDSLAVSLGERATINCKASKKVTIYGSTSALHWYQQKPGQPPKLIYNLAKPESGVPDRFSGSGSGTDFTLTISSLQAEDVAVYYCLQNKEVPYTFGGGTKVEIKR"
experimentalvalue = "~0.2 nM"

[[record]]
binder = "A5M0 (antibody, human IgG1, kappa, V domains shown) VH: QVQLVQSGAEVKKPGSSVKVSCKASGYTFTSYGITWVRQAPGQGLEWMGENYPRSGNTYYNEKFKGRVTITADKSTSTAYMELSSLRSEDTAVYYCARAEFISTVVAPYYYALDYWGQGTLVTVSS VL: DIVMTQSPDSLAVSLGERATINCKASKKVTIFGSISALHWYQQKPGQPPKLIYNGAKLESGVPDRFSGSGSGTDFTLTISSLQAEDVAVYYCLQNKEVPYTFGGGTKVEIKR"
experimentalvalue = "~0.3 nM"

[[record]]
binder = "A24AM18 (antibody, human IgG1, kappa, V domains shown) VH: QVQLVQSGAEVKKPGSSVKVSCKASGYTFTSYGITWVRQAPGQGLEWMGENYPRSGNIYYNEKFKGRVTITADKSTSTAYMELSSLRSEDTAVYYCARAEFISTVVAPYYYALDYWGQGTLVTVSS VL: DIVMTQSPDSLAVSLGERATINCKASKKVTIFGSTSALHWYQQKPGQPPKLIYNLAKPESGVPDRFSGSGSGTDFTLTISSLQAEDVAVYYCLQNKEVPYTFGGGTKVEIKR"
experimentalvalue = "~0.2 nM"

[[record]]
binder = "A5M20 (antibody, human IgG1, kappa, V domains shown) VH: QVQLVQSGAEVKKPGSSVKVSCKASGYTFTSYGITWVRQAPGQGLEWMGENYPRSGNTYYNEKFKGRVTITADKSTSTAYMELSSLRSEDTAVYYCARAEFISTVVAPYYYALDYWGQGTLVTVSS VL: DIVMTQSPDSLAVSLGERATINCKASKKVTIFGSISALHWYQQKPGQPPKLIYNLAKLESGVPDRFSGSGSGTDFTLTISSLQAEDVAVYYCLQNKEVPYTFGGGTKVEIKR"
experimentalvalue = "~0.2 nM"

[[record]]
binder = "A5M12 (antibody, human IgG1, V domains shown) VH: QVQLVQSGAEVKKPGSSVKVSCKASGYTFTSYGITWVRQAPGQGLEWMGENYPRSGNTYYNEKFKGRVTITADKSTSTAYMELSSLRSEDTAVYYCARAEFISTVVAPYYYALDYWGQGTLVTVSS VL: DIVMTQSPDSLAVSLGERATINCKASKKVTIYGSTSALHWYQQKPGQPPKLIYNGAKPESGVPDRFSGSGSGTDFTLTISSLQAEDVAVYYCLQNKEVPYTFGGGTKVEIK"
experimentalvalue = "~0.2 nM"

